Origin of measurements: patent US20080194574A1

Biological target: viral kinase pUL-97 (Human cytomegalovirus)
Construct: The pUL-97 gene was cloned into a baculovirus vector; GST (glutathione S-transferase) (N); made in house; host or cells: Sf9 insect cells, baculovirus
Sequence (P16788 whole entry): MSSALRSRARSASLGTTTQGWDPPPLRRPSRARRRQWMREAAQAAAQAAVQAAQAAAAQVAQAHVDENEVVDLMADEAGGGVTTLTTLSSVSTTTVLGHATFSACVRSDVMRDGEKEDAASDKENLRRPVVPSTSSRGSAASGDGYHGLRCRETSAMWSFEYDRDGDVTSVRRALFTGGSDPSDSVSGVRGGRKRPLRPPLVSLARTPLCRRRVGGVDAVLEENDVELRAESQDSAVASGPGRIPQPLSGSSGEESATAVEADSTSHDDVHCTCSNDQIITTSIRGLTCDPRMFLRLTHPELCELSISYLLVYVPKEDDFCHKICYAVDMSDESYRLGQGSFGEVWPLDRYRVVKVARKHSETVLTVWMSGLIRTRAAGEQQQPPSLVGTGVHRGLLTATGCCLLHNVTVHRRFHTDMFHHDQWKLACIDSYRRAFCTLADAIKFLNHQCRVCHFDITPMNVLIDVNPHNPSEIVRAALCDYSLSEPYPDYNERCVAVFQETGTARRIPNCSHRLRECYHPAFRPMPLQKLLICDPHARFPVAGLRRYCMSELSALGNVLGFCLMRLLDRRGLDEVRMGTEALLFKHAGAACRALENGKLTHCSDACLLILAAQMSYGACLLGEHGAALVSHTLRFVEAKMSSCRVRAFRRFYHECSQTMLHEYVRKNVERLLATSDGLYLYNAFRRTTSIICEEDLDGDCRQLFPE
Assay: UL97 kinase assay on Immobilon plate
Assay type: biochemical
Settings: inhibition of UL 97 kinase activity; class by IC50 / % inhibition at 10 or 100 μM; read-out: Activity Class [A, B, C]
Method: UL97 Kinase-Assay on Immobilon Plate The effect of pyrazine derivatives of this invention was tested on the activity of the viral kinase pUL-97. […] Measuring Incorporation of Radioactivity: The Immobilon plate (Millipore) was rinsed with 50 μl methanol/well. […] After addition of 50 μl scintillation cocktail (Roth, Germany) per well incorporation of radioactivity was measured using a Betareader (Wallac) and enzymatic activity calculated.
pIC50: −log10 of the molar value.
Measurement Kind: pIC50

Known pIC50 results, listed for orientation:
INSERT INTO measurements (entry_smiles, test_result) VALUES
  ('COc1ccc(N2CCN(c3cncc(-c4cccc(OC)c4OC)n3)CC2)cc1OC', '4.00 to 5.00'),
  ('Fc1ccccc1N1CCN(c2cncc(-c3ccc4ccccc4c3)n2)CC1', '5.00 to 6.00'),
  ('CCOc1ccc(-c2cncc(N3CCN(c4ccccc4)CC3)n2)cc1', '5.00 to 6.00'),
  ('Fc1ccc(-c2cncc(N3CCN(c4cccc(Cl)c4)CC3)n2)cc1', '5.00 to 6.00'),
  ('c1ccc(N2CCN(c3cncc(-c4cccs4)n3)CC2)nc1', '4.00 to 5.00');

Reported pIC50 ( `COc1ccc(-c2cncc(N3CCN(c4ccccc4OC)CC3)n2)cc1OC` ) = 5.00 to 6.00

Short answer for `Fc1ccc(-c2cncc(N3CCN(c4ccncc4)CC3)n2)cc1` : pIC50 was 5.00 to 6.00

// pIC50 value for `CC(=O)c1cccc(-c2cncc(N3CCN(c4ccncc4)CC3)n2)c1` : 5.00 to 6.00

Kindly note the recorded pIC50 for `COc1ccc(N2CCN(c3cncc(-c4cc(C)cc(C)c4)n3)CC2)cc1OC` , which is 4.00 to 5.00

Sure, the documented pIC50 for `CC(=O)c1ccc(-c2cncc(N3CCN(c4ccccc4F)CC3)n2)cc1` is 5.00 to 6.00

// pIC50 value for `Fc1ccc(N2CCN(c3cncc(-c4cccc(F)c4)n3)CC2)cc1` : 4.00 to 5.00

Sample `Cc1ccc(N2CCN(c3cncc(-c4ccccc4)n3)CC2)cc1` ; pIC50 observed: 4.00 to 5.00

The compound listed as `c1ccc(Oc2ccc(-c3cncc(N4CCN(c5ccccc5)CC4)n3)cc2)cc1` shows pIC50 equal to 4.00 to 5.00

Lab book: pIC50 of `Clc1cccc(N2CCN(c3cncc(-c4ccccc4)n3)CC2)c1` noted as 5.00 to 6.00

In plain terms, `CSc1ccc(-c2cncc(N3CCN(c4ccccc4F)CC3)n2)cc1` has a documented pIC50 of 5.00 to 6.00

pIC50 measured on `CN(C)c1ccc(-c2cncc(N3CCN(c4cccc(Cl)c4)CC3)n2)cc1` = 4.00 to 5.00

Form field pIC50, entry `Fc1ccc(-c2cncc(NCc3ccco3)n2)c(F)c1` : 5.00 to 6.00

According to the records, this compound `CC(=O)c1cccc(-c2cncc(N3CCN(c4cccc(Cl)c4)CC3)n2)c1` displays pIC50 of 5.00 to 6.00
